- EXPERIMENTAL_DETAILS: protein stability index of a GFP-peptide fusion (GPS, HEK-293T) (PSI 1-6); higher = more stable;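 note: 24-mer peptide tiles fused after GFP, lentivirally expressed, FACS-sorted into six equal bins by GFP/DsRed ratio, decoded by Illumina sequencing, PSI is the read-weighted mean bin number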
- REPORTED_CONDITIONS: treatment: DMSO; c terminus: a fixed tail appended
Satisfied means recorded protein stability index is 4 or above; Not satisfied means it is below 4.

Say whether HIKEILITAGGENVPPIPVETLVK [ACSBG2] shows protein stability index of 4 or more.
Not satisfied

Decide: is the reported value of protein stability index for ELLATGDKGGRVVIFQREQESKNQ [PPP2R2B] equal to or greater than 4?
Not satisfied

Decide: is the reported value of protein stability index for RADQLCQQELRELRRELELLGRER [PRPH] equal to or greater than 4?
Not satisfied

Would you say DERTHRSDRPFKCNQCGKCFIQSS [ZNF8] shows protein stability index at minimum 4?
Not satisfied

Kindly determine if protein stability index recorded for VLLQTSPYHVDSLLQLSDACRFQE [TCF25] is above or exactly 4.
Not satisfied

Check if protein stability index >= 4 (inclusive). Item: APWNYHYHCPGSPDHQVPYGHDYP [TRAF3IP2]
Not satisfied

Is protein stability index for ALEQGGLRAATMSAVEAATCRAKE [PYCR3] at or above 4?
Satisfied

In plain terms: is recorded protein stability index at least 4 for TGEDSAFQEPDSPLPPARSPTEPG [WEE1] ?
Satisfied

Determine whether this sequence has protein stability index no lower than 4: QFAAEYTSKNSSTQDPSQPNSTKN [LCOR]
Satisfied

Check this sequence for protein stability index at or above 4: HSEILKYFQSVTSNRWLMVKIFLI [STX5]
Not satisfied

Textbook exercise: given the entry SLSGVMLTDVSPEPLQALLERASA [PRAME] , state whether its protein stability index is greater than or equal to 4.
Not satisfied

Hi, just wondering whether HSGQVTILKLEQENCTLVTTFRGH [WDFY2] shows protein stability index of 4 or higher.
Not satisfied

----------
- EXPERIMENTAL_DETAILS: protein stability index of a GFP-peptide fusion (GPS, HEK-293T) (PSI 1-6); higher = more stable
- REPORTED_CONDITIONS: treatment: MLN4924 1 uM, 8 h; c terminus: a fixed tail appended
Assign protein stability index to each entry below.

So what's the measured protein stability index for this one? LKNKCCPPPCKFGEGKLSKRLKHK [C22orf31]
3.74

What measured protein stability index goes with IWFRVPYSIISLLLKDKVRERIQI [PTPN9] ?
2.77

GET /values?readout=protein stability index&item= FHNCLIQLYCEKVQGLMKEYLLSF [VPS39]
3.2

Reported protein stability index, sequence EVMERDAKDYADSIHAIFVETSAK [RAB22A] : ____
4.13

# input sequence: SLFSLLIAAAVYIMDTVGNIWVCY [SLC19A2] ; wanted: its protein stability index
3.03

I am curious: what protein stability index value has been reported for QVGTLLFRSRSRLTHLSLSRRASE [CDC25B] ?
3

// protein stability index lookup, key: TQEQARKEFQQVFIPECNDDGTYS [SMOC2]
4.84

Which measured protein stability index value corresponds to IAIARLRGSDLKVLEVTEESIDFD [FBXO33] ?
2.77

Field request: protein stability index | item: LVQLPNINRVSTCYSEEITVCGDL [PPEF2]
2.65

Please report the recorded protein stability index for ICGFLKERCFRGSSYPVCVSKVVK [OAS1] .
2.13

Recorded protein stability index for EFSRATAEKVNQDMCMKVPDDPEH [CRYL1] , please?
5.12

What protein stability index value was documented for this sequence, KSSKYGEGHQAWIVGIVEKGNRTA [SEPHS2] ?
2.56

I'd like to know its protein stability index. The sequence in question is FMEFYQDVKDWWLFGFYFCMPLVC [EDNRA]
3.2

Name the recorded protein stability index for LAGLTRPDVRPPLGRGLVGGQEEA [SEPHS2] .
4.92

Dear colleague, I am looking for the recorded protein stability index of the following sequence: FEFRPELVNDDDEEADDTRYTQGT [ZC3H15]
5.28

May I ask what protein stability index has been recorded for IGPIHLNEIQCTGNEKSIIDCKFN [LOXL2] ?
3.67

Value lookup for protein stability index; key = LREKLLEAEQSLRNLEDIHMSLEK [TEKT4]
3.3

Can you share its protein stability index? I mean this sequence: SRSTLECAYRTHLVAGIGFYQHLL [SMG5]
2.83

What does the record list as protein stability index for RGGSLLAGGGGFGGGSLSGGGGSR [KRT15] ?
3.95

# protein stability index lookup, item LFVLELEWVLSTGQDKQFAWHCSE [WDFY2]
2.77

Returns the measured protein stability index for the input sequence. Input: LLKCVRESDPSDPNKDMVVQLIDD [SRPK2]
4.57

Find the recorded protein stability index belonging to VRYNRVGILRRILRTLRDFPAEER [ANKRD9] and report it.
2.6

Return reported protein stability index; argument: CTEKFKTSRDRKDHMVRMHLYPAD [ZNF511]
3.48

Request the reported protein stability index associated with GLGFASNAFQETWYWHGDVNSNKV [LOXL2]
2.44

Need protein stability index of GDKGALQRLIVGNSALKDKEDQFG [INVS] , thanks.
4.72

Look up protein stability index: RSDADLVVFLSPLTTFQDQLNRRG [OAS1]
2.33

Look at this sequence and give its reported protein stability index. YKCLECGKAFSQNSGLINHQRIHT [ZNF24]
4.57

----------
- EXPERIMENTAL_DETAILS: protein stability index of a GFP-peptide fusion (GPS, HEK-293T) (PSI 1-6); higher = more stable
- REPORTED_CONDITIONS: treatment: DMSO; c terminus: a fixed tail appended
Provide the reported protein stability index of each item.

Endpoint output: protein stability index of HESQQLATETQALAQRTQQDSTRT [TEKT4] . Value?
5.41

Name the recorded protein stability index for SQPGNAVIDKETIDLLAFTSVAEL [SDE2] .
3.43

Query (sequence): KSSKYGEGHQAWIVGIVEKGNRTA [SEPHS2] ; field requested: protein stability index
2.56

Give its protein stability index value. Item: YCLTCEVPTCSMCKVFGIHKACEV [TRIM63]
2.69

Which value of protein stability index has been reported for GGVGYGDSKDCILEPLSLPESPGG [ZNF277] in the records?
4.43

// protein stability index lookup, key: NPKDCSENIEVKEGGLYFERRPVA [SPSB2]
4.68

Fill in the blank: the reported protein stability index of RRFNFFVLENNLEAVARHMLIFSL [DNAAF3] is ____.
2.77

----------
- EXPERIMENTAL_DETAILS: protein stability index of a GFP-peptide fusion (GPS, HEK-293T) (PSI 1-6); higher = more stable
- REPORTED_CONDITIONS: treatment: DMSO; c terminus: a fixed tail appended
Returns 1.0 if the recorded protein stability index is greater than or equal to 4, and 0.0 otherwise.

Is protein stability index at least 4? Consider VGWWALLALVTLLSFATRFHRLDE [POMT2]
0.0

Check if protein stability index >= 4 (inclusive). Item: SWRWIMLILFAWGTLLFYIGGHLV [FUT8]
0.0

Decide: protein stability index of HKVAPLVQSLCAKHGIEYQSKPLL [FADS1] >= 4?
0.0

Hello, I need to know if SRSNSRSRSYSPRRSRGSPRYSPR [SRSF1] has measured protein stability index not below 4. Thanks!
1.0

State whether the measured protein stability index reaches 4, counting equality as reaching it, for SSTQLCVLNDRFQRQKYLSLQQMQ [NANOGP8]
0.0

Please tell me: is the sequence KPVDMWACGVILYILLVGYPPFWD [CAMK2D] at or over 4 in terms of protein stability index?
0.0

Determine whether measured protein stability index meets or exceeds 4 for GGDEVDDSVSVNDIDLSLYIPRDV [ZC3H15]
1.0

Test whether the sequence FYQAVRDLLPVWLLEDMRASEAFH [ANKRD9] records protein stability index of 4 or higher.
0.0

Entry ARVTGELTMTFPAGIVRVFSGTPP [FCHO1] : is its protein stability index no less than 4?
0.0

Check this sequence for protein stability index at or above 4: EFYHDEFKRWIYLNDQNLCIPASS [GAN]
0.0

Does the sequence DELIPEYLNFIRGVVDSEDLPLNI [HSP90AB1] have recorded protein stability index that is 4 or more?
0.0

Would you say ERNEVRNVFKELQIMQGLEHPFLV [STK32A] shows protein stability index at minimum 4?
0.0

Form field: protein stability index at least 4? Entry: NYEKLSRGLRYYYDKNIIHKTAGK [ETS1]
0.0

Determine whether this sequence has protein stability index no lower than 4: GKTKKDYQEASNLEQFVTRFLLKE [NECAB1]
0.0

Reported protein stability index at or above 4? WDRNRRRGGGAAGAGGGGSGAGGG [KLHDC10]
1.0

# bool: protein stability index of RESPSFKLEPMETERSPGPRLQEL [ZNF263] >= 4
1.0

# bool: protein stability index of SRAANQEQRANDLEQIMESVKSKI [CEP70] >= 4
1.0

Could you verify whether the entry LVVMAPSPSESSETVLALVNCISP [DENND6A] shows protein stability index of no less than 4?
0.0

Threshold query (protein stability index >= 4) on FRGFPPEDLMPLAAAYGHALEQYE [P3H4]
0.0

Is protein stability index for DCLKACQEQIEAVLLNSLQQYRQD [CCND2] at or above 4?
0.0

Is it the case that WLISEEEKTQKNQCWKSLFIDTYS [FBXO3] has protein stability index reaching or exceeding 4?
0.0

Identify whether the reported protein stability index of the following sequence is 4 or greater: VVEEVRRRATSGGKWPQVLFFPEG [LPCAT4]
0.0

Decide: protein stability index of ILCNKTAYQEVFKPENISLRNKLR [SMG5] >= 4?
0.0

In plain terms: is recorded protein stability index at least 4 for SQSETSSAVSTPSPVTRTRSLSAC [DLC1] ?
1.0

Assess whether reported protein stability index for RNGHAKVVRLLLEHYRVQTQQTGT [FEM1B] sits at 4 or higher.
0.0

Item LALGVSLLCNAITGITLLRVKFKS [PTGFR] with protein stability index of 4 or above?
0.0

Decide: protein stability index of RAILKPRKVCVGGKRRKDEISVDS [PPP2R2B] >= 4?
0.0

Quick check: does PSSSSIHNGDMEKILLDAQHESGQ [BNIP3L] have protein stability index greater than or equal to 4?
1.0

Please check the record FIWFVCSLVYYGLTLSAGDLGGSI [SLC22A15] and state if its protein stability index is at or above 4.
0.0

Item MRMSDTVTVKDETATMKDLEAEVK [R3HDM1] with protein stability index of 4 or above?
1.0

Decide: protein stability index of PQVPPSQPLRPWAGGDVPHKTHQA [DYRK1B] >= 4?
1.0

Does the reported protein stability index for PGFDRGQFHKQIAVMRGQILNLTQ [PI4K2A] fall at or above the 4 mark?
0.0

Item TQEQARKEFQQVFIPECNDDGTYS [SMOC2] with protein stability index of 4 or above?
1.0

Does the sequence EDENIEVVYSKAASVPKVETVKSD [EIF5] have recorded protein stability index that is 4 or more?
1.0

Quick check, protein stability index >= 4? RHCPYLDTINRSVLDFDFEKLCSI [USP39]
0.0

Decide: protein stability index of PSCRHEVVLDRHGVYGLQRNLLVE [TRIM55] >= 4?
0.0

Does protein stability index meet or surpass 4 for VHFSEAIEKFIREPSLKATMGLAG [ALG2] ?
0.0

Is it the case that VFWPQLPNGLEAAYEFADRDEVRF [MMP1] has protein stability index reaching or exceeding 4?
0.0

Identify whether the reported protein stability index of the following sequence is 4 or greater: VVQGPDGRLELKPLLLRLPRICQR [FANCE]
0.0

State whether the measured protein stability index reaches 4, counting equality as reaching it, for YNKPTDDIVLMAQALEKIFLQKVA [BRD3]
0.0

Test whether the sequence QHCRQSLASRIRSNKKMLLLVGGL [KLHL14] records protein stability index of 4 or higher.
0.0

Is the recorded value of protein stability index equal to or greater than 4 for this sequence? PGTLLKTSPSPERSLLLKYARTPT [TRIM14]
0.0

Decide: is the reported value of protein stability index for GLERRDWSPSPPATPEQGLSAFYL [SPDEF] equal to or greater than 4?
0.0

Decide: is the reported value of protein stability index for HTDSKYEHAIAEAQKNMYFKTRLK [ZNF396] equal to or greater than 4?
0.0

Dear colleague, could you confirm whether PYQVNGVNPAYPESRYTSDYFISY [ETS1] has protein stability index at or above 4?
0.0

Check the entry SRSTLECAYRTHLVAGIGFYQHLL [SMG5] : does protein stability index equal or exceed 4?
0.0

Is the recorded value of protein stability index equal to or greater than 4 for this sequence? SWPRASPASGASSIKPEASQMPPP [SCNN1D]
1.0

Evaluate LMPGVPPLMPGMPPVMPGMPPGLH [ZNF207] : protein stability index at minimum 4?
0.0

Would you say SKNEDRGEEEAESSISSTSNEQLK [ZMYND11] shows protein stability index at minimum 4?
1.0

Reported protein stability index reaches at least 4 for DPMLDFYSDKNAKLTKESYPVVVA [TENT5D] ?
0.0

Check the entry VEMESEEQIAERKRKMVSWEASSL [KMT2E] : does protein stability index equal or exceed 4?
0.0

Has NCPGQYTFSMPSDSHVSSCSEDWV [CD69] a recorded protein stability index greater than or equal to 4?
0.0
